Measured on: GPR40 (Homo sapiens, UniProt O14842)
Sequence (O14842 whole entry): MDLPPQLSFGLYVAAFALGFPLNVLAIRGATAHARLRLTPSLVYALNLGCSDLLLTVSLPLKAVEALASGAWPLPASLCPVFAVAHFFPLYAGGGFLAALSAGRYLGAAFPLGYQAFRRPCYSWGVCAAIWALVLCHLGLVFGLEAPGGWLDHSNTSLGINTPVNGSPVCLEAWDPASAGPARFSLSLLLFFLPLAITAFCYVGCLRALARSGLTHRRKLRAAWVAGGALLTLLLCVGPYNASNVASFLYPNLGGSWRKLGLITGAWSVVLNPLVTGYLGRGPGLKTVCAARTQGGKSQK
Procedure details: Cell-based aequorin assay (CHO cells stably expressing GPR40 and aequorin)
Set-up: expressed in transfected cells; host or cells: CHO cells stably transfected with GPR40 and aequorin
Experimental conditions: activation of human GPR40, CHO cells, 0.01% HSA
pEC50: −log10 of the molar value.
Quick list: pEC50 per entry.
Endpoint label: pEC50

[[record]]
compound = "COc1ccc(F)c(-c2ccc(COc3cccc(C(C)CC(=O)O)c3)cc2/C=C/C2CCCCC2)c1 (single isomer, unassigned)"
endpoint_label = "pEC50"
reported_value = "6.00 to 7.00"

[[record]]
compound = "CCCCOc1cc(COc2cccc(C(C)CC(=O)O)c2)ccc1-c1cccc(SC)c1 (single isomer, unassigned)"
endpoint_label = "pEC50"
reported_value = "5.00 to 6.00"

[[record]]
compound = "COc1ccc(F)c(-c2ccc(COc3cccc(C(CC(=O)O)C4CC4)c3F)cc2CN2CCCCCC2)c1 (single isomer, unassigned)"
endpoint_label = "pEC50"
reported_value = "5.00 to 6.00"


====

Quick list: EC50 per entry.
Measured on: GPR40 (Homo sapiens, UniProt O14842)
Procedure details: Cell-based aequorin assay (CHO cells stably expressing GPR40 and aequorin)
Design: expressed in transfected cells; host or cells: CHO cells stably transfected with GPR40 and aequorin
Experimental conditions: activation of human GPR40, CHO cells, 0.01% HSA
Endpoint label: EC50

[[record]]
compound = "CC[C@H](CC(=O)O)c1cccc(OCc2ccc(-c3cc(OC)ccc3F)c([C@H]3CCCC3(C)C)c2)c1 (single isomer, unassigned)"
endpoint_label = "EC50"
reported_value = "10 to 100 nM"

[[record]]
compound = "COc1ccc(F)c(-c2cc(F)c(COc3cccc([C@@H](CC(=O)O)C4CC4)c3)cc2C2=CCCC2(C)C)c1 (single isomer, unassigned)"
endpoint_label = "EC50"
reported_value = "100 to 1000 nM"

[[record]]
compound = "COc1ccc(F)c(-c2ccc(COc3cccc([C@@H](CC(=O)O)C(F)(F)F)c3)cc2C(C)(C)C)c1 (single isomer, unassigned)"
endpoint_label = "EC50"
reported_value = "1000 to 10000 nM"

[[record]]
compound = "COc1ccc(F)c(-c2ccc(COc3cccc(C(CC(=O)O)C4CCC4)c3)cc2C2CCCCCC2)c1 (single isomer, unassigned)"
endpoint_label = "EC50"
reported_value = "100 to 1000 nM"

[[record]]
compound = "CCC(CC(=O)O)c1cc(F)cc(OCc2ccc(-c3cc(OC)ccc3F)c(C3=CCCC3(C)C)c2)c1F (single isomer, unassigned) [Example 90.1]"
endpoint_label = "EC50"
reported_value = "100 to 1000 nM"

[[record]]
compound = "COc1ccc(F)c(-c2ccc(COc3cccc(C(C)CC(=O)O)c3)cc2CCC(C)(C)C)c1 (single isomer, unassigned)"
endpoint_label = "EC50"
reported_value = "100 to 1000 nM"


====

Measured on: GPR40 (Homo sapiens, UniProt O14842)
Procedure details: Inositol phosphate accumulation assay (A9_GPR40 cells)
Assay type: cell-based
Set-up: expressed in transfected cells; host or cells: CHO cells stably transfected with GPR40 and aequorin
Experimental conditions: inositol phosphate assay, A9_GPR40 cells, 1 hour; read-out: IP3 EC50
pEC50: −log10 of the molar value.
Quick list: pEC50 per entry.
Endpoint label: pEC50

[[record]]
molecule = "CC[C@H](CC(=O)O)c1cccc(OCc2ccc(-c3cc(OC)ccc3F)c(C(C)(C)C)c2)c1 (single isomer, unassigned) [Example 17]"
reported_value = "6.00 to 7.00"

[[record]]
molecule = "COc1ccc(F)c(-c2ccc(COc3cccc(CCC(=O)O)c3)cc2C2=CCCC2)c1 [Example 39]"
reported_value = "6.00 to 7.00"

[[record]]
molecule = "CCC[C@H](CC(=O)O)c1cccc(OCc2cc(C3=CCCC3(C)C)c(-c3cc(OC)ccc3F)cc2F)c1 (single isomer, unassigned) [Example 67.21]"
reported_value = "7.00 to 8.00"

